- Test system: A549
- ASSAY PROTOCOL: NCI tumour cell line growth inhibition, 48 h
The source made the active and inactive calls. Rule as the data show it: active = GI50 up to about 1.1 µM and inactive = higher.
Kindly state GI50 for each of the entries shown.

>>> print(df.to_string())
                                   compound  target_system         result_value
0  [N-]=[N+]=NCC(O)Cn1cnc2c(NC(=O)c3ccccc3)ncnc21 (stereo unspecified)           A549  > 100 µM (inactive)
1  O=C(NC(=S)Nc1ccc(Br)cc1)c1ccc2c(c1)Sc1ccccc1O2           A549  > 100 µM (inactive)
2              CCNC(=S)NNC(=O)c1nsc2ccccc12           A549  > 100 µM (inactive)
3       C[Si](C)(C)/C(Br)=C\CCN1C(=O)CCC1=O           A549  > 100 µM (inactive)
4  CSC12c3cc(C)n(-c4ccccc4)c3CC(C)(C)CN1C(=O)C2Oc1ccccc1 (stereo unspecified)           A549   11.7 µM (inactive)

I need GI50 for every entry listed below, if you could help.
1. CC(C)(C)/C(=N\Nc1nc2ccccc2[nH]1)c1ccccn1
2. COc1ccc2c(O)c3[n+](cc2c1OC)CCc1cc2c(cc1-3)OCO2
3. C1CSCCSCCSCCSC1
4. CC(CC(=O)Nc1ccc(NC(=O)CC(C)/N=N\C(N)=O)cc1)/N=N\C(N)=O (stereo unspecified)
5. O=C1C(Nc2ccc(S(=O)(=O)Nc3cnc4ccccc4n3)cc2)=C/C(=N\c2ccc(S(=O)(=O)Nc3cnc4ccccc4n3)cc2)c2ccccc21
6. CC1(C)CCCC2(C)C3=C(CCC12)C(=O)OC3 (stereo unspecified)
7. Cc1cc([N+](=O)[O-])ccc1NC(=O)C(=O)C(C(=O)c1ccccc1-c1ccccc1)C1OC(=O)c2ccccc21 (stereo unspecified)

OUTPUT:
1: > 100 µM (inactive); 2: > 100 µM (inactive); 3: > 100 µM (inactive); 4: > 100 µM (inactive); 5: 19.7 µM (inactive); 6: > 100 µM (inactive); 7: 10.8 µM (inactive)

Batch request: GI50 per item, same order as input.
1. NC(=O)C12C3C4C1C1C2C3C41C(N)=O (stereo unspecified)
2. Clc1ccccc1C1=NN(c2ccccc2)C2c3cc(Br)ccc3OCC12 (stereo unspecified)
3. O=P1(Cc2ccccc2)c2ccccc2-c2ccccc21
4. CN(C)CCOc1cc2c(c3ccccc13)-c1ccccc1C2O (stereo unspecified)
5. C=CCO/N=C/c1cc(/N=C(/S)c2ccoc2C)ccc1Cl
6. O=C(Nc1ccc([N+](=O)[O-])cc1)C(=O)C(C(=O)c1ccccc1F)C1OC(=O)c2ccccc21 (stereo unspecified)

OUTPUT:
1. > 100 µM (inactive)
2. > 100 µM (inactive)
3. 8.81 µM (inactive)
4. 15.5 µM (inactive)
5. 21 µM (inactive)
6. 67.6 µM (inactive)

Below is a list of compounds. For each, state its recorded GI50.
1. CS(=O)(=O)CCC1CCC(=O)O1 (stereo unspecified)
2. CCOC(=O)NC(=O)c1cn(C2OC(CO)C(O)C2O)c(=O)[nH]c1=O (stereo unspecified)
3. CC(C)(C)OCC1NC(=O)[C@@H]2Cc3c([nH]c4ccccc34)C(C3CCCCC3)N2C1=O (stereo partly specified)
4. C[N+](C)(C)CCN[N+]1(C)CCCc2ccccc21 (stereo unspecified)
5. CC(Br)C(=O)NN1C2=C(Nc3ccccc31)c1cccc3cccc2c13 (stereo unspecified)
6. Clc1ccc(-c2c(C3=NCCN3)nnn2-c2ccc(Cl)cc2)cc1
7. O=C(CN1C(=O)c2ccccc2C1=O)C(O)CN1C(=O)c2ccccc2C1=O (stereo unspecified)
8. CC(C)NCCC(O)c1cc2ccccc2o1 (stereo unspecified)

OUTPUT:
1. 43.6 µM (inactive)
2. > 100 µM (inactive)
3. 33.7 µM (inactive)
4. > 100 µM (inactive)
5. 57.9 µM (inactive)
6. 53.2 µM (inactive)
7. > 100 µM (inactive)
8. > 100 µM (inactive)

For the 6 compounds below, give their GI50 values.
1. S=C(/N=c1\sc(NCc2ccccc2)nc2sc3c(c12)CCN(N1CCc2c(sc4nc(NCc5ccccc5)s/c(=N\C(=S)NCc5ccccc5)c24)C1)C3)NCc1ccccc1
2. COC1(OC)CC(CO)(CNc2nc(N)nc(Cl)c2/C=N\O)C1
3. CCc1nnc2sc(-c3ccc(-c4ccc(Cl)cc4Cl)o3)nn12
4. Nc1ncnc2c1N=CN(Oc1ccccc1)N2
5. CCOC(=O)C(=Cc1cc(OC)ccc1OC)C(=O)OCC
6. CCN1CC2(COC)C(O)CC(OC)C34C5CC6(O)C(OC)C=C(C5C6OC(=O)c5ccc(OC)c(OC)c5)C(C(OC)C23)C14 (stereo unspecified)

OUTPUT:
1. 27.4 µM (inactive)
2. 59.7 µM (inactive)
3. 73.5 µM (inactive)
4. > 100 µM (inactive)
5. 6.3 µM (inactive)
6. > 7.5 µM (inactive)

// for each compound in input: emit GI50
1. CCOC(=O)N1c2ccccc2N(C(=O)OCC)C1CC(=O)/C=C/c1ccccc1
2. O=C(CCCn1cnc([N+](=O)[O-])n1)NCCn1ccnc1[N+](=O)[O-]
3. COC(=O)C(=O)C(C(=O)C(=O)Nc1ccc(OC)cc1[N+](=O)[O-])c1nc2ccc([N+](=O)[O-])cc2nc1O (stereo unspecified)
4. CC1(C)CN(CC(=O)O)CC(Cc2ccc(OCC(=O)O)cc2)N(CC(=O)O)CC(C)(C)SS1 (stereo unspecified)

OUTPUT:
3.36 µM (inactive)
> 100 µM (inactive)
> 100 µM (inactive)
> 100 µM (inactive)

###

- System: MOLT-4
- ASSAY PROTOCOL: NCI tumour cell line growth inhibition, 48 h
Activity calls are given as the source filed them. Rule as the data show it: active = GI50 up to about 1.1 µM and inactive = higher.
Exercise: for every item that follows, state its recorded GI50.

Examples with answers:
>>> print(df.to_string())
                                   molecule         result_value
0               CC1(C)C(=O)N(O)C(C)(C)N1N=O   > 10 µM (inactive)
1  Cc1cc2c(cc1-c1cc3c(cc1C)C(C(C)C)=C(O)C(=O)/C3=C\Nc1nc(-c3ccccc3)cs1)/C(=C/Nc1nc(-c3ccccc3)cs1)C(=O)C(O)=C2C(C)C   35.7 µM (inactive)
2  Cc1cc(N(CCC#N)CCC#N)ccc1/C=C(\NC(=O)/C=C/c1ccccc1)C(=O)N=[N+]=[N-]  > 100 µM (inactive)
3  O=C(O)/C(=C\c1ccccc1Cl)S(=O)(=O)c1ccccc1  > 100 µM (inactive)
4                        CC#CC(OCC)(OCC)OCC  > 100 µM (inactive)

Please look at the following molecule next.
INPUT: What value of GI50 has been recorded for this entry: CC(C)(C)OCC1NC(=O)[C@@H]2Cc3c([nH]c4ccccc34)C(C3CCCCC3)N2C1=O (stereo partly specified)
OUTPUT: 16.5 µM (inactive)

###

- Tested on: A549
- ASSAY PROTOCOL: NCI tumour cell line growth inhibition, 48 h
Activity calls are given as the source filed them. Rule as the data show it: active = GI50 up to about 1.1 µM and inactive = higher.
EXPERIMENTAL ENDPOINT: GI50

Solved entries:
                                   molecule         result_value
0  Cc1ccc(S(=O)(=O)c2ccccc2[N+](=O)[O-])cc1  > 100 µM (inactive)
1  CC1(C)NC(C(=O)c2ccccc2)=[N+]([O-])C1(O)c1ccccc1 (stereo not drawn)  > 100 µM (inactive)
2    COc1ccc2nc3c4c(nccc4c2c1)-c1ncccc1C3=O    0.113 µM (active)
3  OC(C1=C/C(=C\c2ccncc2)c2ccccc21)c1ccncc1 (stereo not drawn)   13.3 µM (inactive)
4  COc1ccc(C2CC(c3cc4c(C)c(C(=O)c5ccccc5)oc4cc3O)=Nc3ccccc3S2)cc1OC (stereo not drawn)   96.8 µM (inactive)
5  NCCCN(CCCN(C(=O)Nc1ccccc1)c1ccccc1)C(=O)Nc1ccccc1   47.1 µM (inactive)
6        O=C(NNC(=S)Nc1ccccc1)c1nsc2ccccc12   28.8 µM (inactive)
7             CS(=O)(=O)NNS(=O)(=O)c1ccccc1  > 100 µM (inactive)

Quick batch: GI50 for everything below.
1. C[C@]12C(=O)OC[C@H](c3ccccc3)N1C(=O)N(Cc1ccccc1)[C@@H]2CO
2. CN(C)C(=O)Oc1c(Br)cc(Br)cc1C(=O)OCc1ccccc1
3. O=C1C2Nc3ccccc3SC2C(=O)N1c1cccc([N+](=O)[O-])c1 (stereo not drawn)
4. Cc1cc(O)ccc1C1(c2ccc(F)cc2)OC(=O)c2ccccc21 (stereo not drawn)
5. O=C(CCc1cc(-c2ccccc2)[nH]c(=S)n1)Nc1ccccc1[N+](=O)[O-]
6. CN(C)CCNC1=Nc2ccccc2C(=O)N2CSCC12 (stereo not drawn)
7. C=C(C(=C)N1N=NC2C3CCC(C3)C21)N1N=NC2C3CCC(C3)C21 (stereo not drawn)

OUTPUT:
1. > 100 µM (inactive)
2. 28.1 µM (inactive)
3. 98.9 µM (inactive)
4. 5.24 µM (inactive)
5. > 100 µM (inactive)
6. > 100 µM (inactive)
7. > 100 µM (inactive)
